- TESTED SYSTEM: butyrylcholinesterase (BuChE)
- ASSAY EXPLANATION: modified Ellman photometric anti-cholinesterase assay
ASSAY READOUT: IC50 (µM)

{"columns": ["STRUCTURE", "UNIT ABBREVIATION", "QUANTITATIVE READOUT"],
 "data": [
  ["CCC[C@H](O)CCCCCC[C@H]1CCC[C@@H]2N[C@H](C)[C@H](OC(=O)/C=C/SC)C[C@H]12", "µM", 3.1]
]}
